meta.source: PubChem BioAssay (NCI)

- Tested on: UACC-62 melanoma
- method-summary: NCI tumour cell line growth inhibition, 48 h
quantity: log10 TGI (log10 of the value in µM)

molecule | log10 TGI
COc1cc(C2=NOC(c3cc(OC)c(OC)c(OC)c3)C2)ccc1OCCCCOc1cc2c(cc1OC)C(=O)N1CCC[C@H]1C=N2 (some centres undefined) | -0.47
O/N=C/C1c2ccccc2-c2ccccc21 | 1.48
C=C1C(=O)O[C@H]2[C@H]1CC/C(Cn1cc(-c3ccc(OC)cc3)nn1)=C\CC[C@@]1(C)O[C@@H]21 | 0.48
CCOc1cc(-c2nc3ccccn3c2/N=C/c2cc(Br)ccc2O)ccc1O | 1.76
O=C(N/N=C/c1cc(Br)cc(Br)c1[O-])c1ccccc1O.O=C(N/N=C/c1cc(Br)cc(Br)c1[O-])c1ccccc1O.[Fe+2] | 1.02
